Measured values drawn from paper PMC8304783 for this set.

Tested on: C. glabrata ATCC90030
Experiment: Minimal inhibitory and fungicidal concentrations (broth microdilution, CLSI M27-A3 modified)
Type: cell-based
Details: Nakaseomyces glabratus, 120 h, replated on YPD agar, 5 days, 28 °C, read-out: Minimal fungicidal concentration (MFC)
Procedure: Experiments were performed according to the Clinical and Laboratory Standards Institute (2008), 3rd ed. M27-A3 [51], with modifications described previously. Briefly, MICs were determined by serially diluting ILs in YPD medium in sterile 96-well plates (Sarstedt) and inoculating with fungal suspensions (final OD600 per well = 0.01). After incubation (48 h; 28 °C), the OD600 was measured (ASYS UVM 340 Biogenet). […] Each well was then replated on YPD agar and incubated for 5 days at 28 °C.
Form field: MFC (one value per entry).

compound	study-system	MFC
CCCCCCCCCCn1cc[n+](CO[C@@H]2C[C@H](C)CC[C@H]2C(C)C)c1	C. glabrata ATCC90030	25 µM
CCCCCCCCCn1cc[n+](CO[C@@H]2C[C@H](C)CC[C@H]2C(C)C)c1	C. glabrata ATCC90030	25 µM
CCCCCCCCCOCn1cc[n+](CO[C@@H]2C[C@H](C)CC[C@H]2C(C)C)c1	C. glabrata ATCC90030	12.5 µM
C[C@@H]1[C@H](O)[C@@H](C)/C=C/C=C/C=C/C=C/C=C/C=C/C=C/[C@H](O[C@@H]2O[C@H](C)[C@@H](O)[C@H](N)[C@@H]2O)C[C@@H]2O[C@](O)(C[C@@H](O)C[C@@H](O)[C@H](O)CC[C@@H](O)C[C@@H](O)CC(=O)O[C@H]1C)C[C@H](O)[C@H]2C(=O)O [AMB, amphotericin B, reference compound]	C. glabrata ATCC90030	0.5 µM

* * *

The reader will find MIC90 measurements below, all made with C. krusei ATCC6258.

molecule	MIC90
CCCCCCCCCOCn1cc[n+](CO[C@@H]2C[C@H](C)CC[C@H]2C(C)C)c1	6.25 µM
CCCCCCCCCCn1cc[n+](CO[C@@H]2C[C@H](C)CC[C@H]2C(C)C)c1	25 µM
C[C@@H]1[C@H](O)[C@@H](C)/C=C/C=C/C=C/C=C/C=C/C=C/C=C/[C@H](O[C@@H]2O[C@H](C)[C@@H](O)[C@H](N)[C@@H]2O)C[C@@H]2O[C@](O)(C[C@@H](O)C[C@@H](O)[C@H](O)CC[C@@H](O)C[C@@H](O)CC(=O)O[C@H]1C)C[C@H](O)[C@H]2C(=O)O [AMB, amphotericin B, reference compound]	0.5 µM
CCCCCCCCCn1cc[n+](CO[C@@H]2C[C@H](C)CC[C@H]2C(C)C)c1	6.25 µM
